Test: growth suppression of PTEN-deleted HCT116, pilot screen, cell-based, HCT116 clonal line, CellTiter-Glo (AID 824);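 note: 0% = 20 µM Hyamine control and 100% = vehicle cell control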
Conditions: 60 h, at 10 µM, active compounds read low
Records with an inconclusive call do not appear. Calls of active or inactive are those of the source.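 Rule for the calls: active = viability at or below 27.92% in each of two runs, the all-compound median minus 4 SD; inconclusive = no clear call, values can overlap the other calls; inactive = the rest.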
# maps each entry to its viability

molecule: Cn1c(C(=O)NCCN2CCN(Cc3ccccc3)CC2)cc2c(=O)n(C)c3ccccc3c21
measurement.label: viability
experimental.result: 79% (inactive)
//
molecule: COC(=O)c1ccc(CSc2nc3c(c(=O)n2-c2ccc(F)cc2)SCC3)o1
measurement.label: viability
experimental.result: 81.3% (inactive)

Qu. Given the molecule Cc1cc(N2CCCc3ccccc32)n2ncnc2n1 , write its reported viability.
Ans. 105% (inactive)

Qu. Give recorded viability. COc1cccc(-c2cc(N)nn2C(=O)Nc2ccc(Cl)cc2)c1
Ans. 90.7% (inactive)

Qu. Please supply the value of reported viability for the item CC(=O)Oc1ccc(N2C(=O)CC(N3CCOCC3)C2=O)cc1 (stereo not given)
Ans. 99.9% (inactive)

Qu. Fill in viability for record Cc1nn(-c2ccc(Cl)cc2)c2sc(C(=O)N3CCN(C(=O)c4ccco4)CC3)cc12
Ans. 82.5% (inactive)

Qu. Consider the molecule O=C(NCc1ccco1)C1CCN(c2nc3ccccc3n2Cc2ccc(F)cc2)CC1 . State its measured viability.
Ans. 73.9% (inactive)

Qu. Provide only the value of recorded viability for CCc1nnc(NC(=O)c2ccc(S(=O)(=O)N3CCOCC3)cc2)s1
Ans. 94.6% (inactive)

Qu. Respond only with viability recorded for Cc1cc(NC(=O)CSc2nnc(Cn3c(=O)sc4ccccc43)n2-c2ccccc2C)no1
Ans. 87% (inactive)

Qu. Answer with the recorded viability of COc1ccc(-n2c(SCC(=O)Nc3nccs3)nc3c(c2=O)SC(C)C3)cc1 (stereo not given) only.
Ans. 93% (inactive)

###

Experiment: viability gain of MRP-1-high H69AR cells under doxorubicin, pilot screen, MRP-1 activator project, CellTiter-Glo, duplicate (AID 807);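 note: compound pretreatment 18-22 h then 72 h combined with doxorubicin; 0% = doxorubicin alone and 100% = vehicle without doxorubicin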
Details: H69AR viability with doxorubicin, CellTiter-Glo luminescence; at 10 µM; active compounds read high
Calls of active or inactive are those of the source.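 How the source made its calls: active means viability increase at or above a cutoff of the median across tested compounds plus 3 SD (cut at about 8.5% in these data, passing the limit was not always enough); inconclusive means some gains above the cutoff, reason not given; inactive means the rest.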
// reported viability increase per item

compound: CCNCCNC(=O)c1c(O)c2cccc3c2n(c1=O)CCC3
viability increase: -3.02% (inactive)
--
compound: O=c1c(/C=N/O)c(Nc2ccccc2)nc2ccccn12
viability increase: -6.27% (inactive)
--
compound: Cc1cccc(NC(=O)c2ccc(S(=O)(=O)N3CCCCC3)cc2)n1
viability increase: 1.43% (inactive)

Qu. Indicate its recorded viability increase; the compound in question is O=C(Cc1cc(=O)[nH]c(=O)[nH]1)NCCN1CCOCC1
Ans. 1.08% (inactive)

Qu. Please give the documented viability increase of N#CCc1ccc(NS(=O)(=O)c2ccc(N3CCCC3=O)cc2)cc1
Ans. -0.69% (inactive)

Qu. Identify measured viability increase associated with CC(C)NC(=O)NC(=O)COc1ncnc2sccc12
Ans. -1.28% (inactive)

Qu. Note viability increase for the compound shown: O=C(NC1CCCCC1)C1CC(=O)N(c2ccc(Cl)cc2)C1 (configuration not stated)
Ans. -0.58% (inactive)

Qu. Consider the compound Cc1ccc(CNC(=O)CCS(=O)(=O)c2cccc3nsnc23)cc1 . State its measured viability increase.
Ans. -1.57% (inactive)

Qu. Give a short answer stating reported viability increase for COc1cc2ccccc2cc1-c1nnc(COc2ccccc2)o1 .
Ans. -2.61% (inactive)

Qu. Consider the compound O=C(NC(=O)c1ccccc1)OCC(F)(F)F . State its measured viability increase.
Ans. 0.71% (inactive)

Qu. Using the record for Cc1cccc(C(=O)N2CCN(Cc3ccc4c(c3)OCO4)CC2)c1 , state its measured viability increase.
Ans. -1.3% (inactive)

Qu. Give viability increase for the following compound: Cc1ccc(C(C)C)c(OCC(=O)N2CCOCC2)c1
Ans. -0.67% (inactive)

###

Assay: viability gain of MRP-1-high H69AR cells under doxorubicin, pilot screen, MRP-1 activator project, CellTiter-Glo, duplicate (AID 807);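 note: compound pretreatment 18-22 h then 72 h combined with doxorubicin; 0% = doxorubicin alone and 100% = vehicle without doxorubicin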
Conditions: H69AR viability with doxorubicin, CellTiter-Glo luminescence; at 10 µM; active compounds read high
measurement.label: viability increase (%)
Numeric only. Scale: %

compound: Cc1ccc(N(CC(=O)NCc2cccnc2)S(C)(=O)=O)cc1C
viability increase, %: -2.97
--
compound: Cc1ccc(F)c(NC(=O)C2CCCCC2C(=O)O)c1 (stereo unspecified)
viability increase, %: -2.22
--
compound: Cc1sc2nc(SCC(=O)N3CCOCC3)[nH]c(=O)c2c1C
viability increase, %: -1.93
--
compound: CC1CCCCN1C(=O)CSCC(=O)Nc1nc(-c2cccs2)cs1 (stereo unspecified)
viability increase, %: -4.62
--
compound: COc1ccccc1-c1c(C)nn2c(C)cc(C)nc12
viability increase, %: -1.88

Qu. Quickly give me recorded viability increase for Cc1cc(NCc2ccccc2)nc(-c2ccccc2O)n1
Ans. -1.24

Qu. Answer with reported viability increase of Cc1cc2oc3c(c(=O)c2cc1C)C(c1ccc(F)cc1)N(CCCN1CCOCC1)C3=O (stereo unspecified)
Ans. -2.77

Qu. Item COc1ccc(OCC(=O)Nc2cc(-c3nn4c(C)nnc4s3)ccc2C)cc1 : provide viability increase
Ans. -1.72

Qu. Please list viability increase recorded for the compound CCN(CC)C(=O)C1CCCN(C/C=C/c2ccccc2)C1 (stereo unspecified)
Ans. -0.55

Qu. Note viability increase for the compound shown: O=C(O)CC(Cn1cnnn1)c1ccccc1 (stereo unspecified)
Ans. -0.66

Qu. Fill in reported viability increase for this entry: CNC(=O)c1c(NC(=O)c2ccc(S(=O)(=O)N3CCOCC3)cc2)sc2c1CCC2
Ans. -0.97

###

Assay: inhibitors of the yeast RAM network, pilot screen, dse1pr::URA3 reporter, 5-FOA selection (AID 869);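 note: 0% = DMSO wells with no growth and 100% = 10 µM 1-NA-PP1 with full growth; RAM network block rescues cells from 5-FOA so hits raise OD615 growth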
Details: S. cerevisiae dse1pr::URA3 5-FOA growth, OD615, 2 d; at 10 µM; active compounds read high; strain carries analog-sensitive mutant Cbk1 kinase
Activity calls are given as the source filed them.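 Rule for the calls: active = inhibition over a set limit, the all-compound mean plus 3 SD, in both replicate runs; inconclusive = over that limit in just one replicate run; inactive = at or under that limit in both runs.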
measurement.label: inhibition

molecule: COc1ccc(NC(=O)c2c(NC(=O)CNCc3ccco3)sc3c2CCC3)c(OC)c1
experimental.result: 1.43% (inactive)
--
molecule: CCC(Cc1ccccc1)NC(=O)CN1C(=O)CSc2ncccc21 (stereo unspecified)
experimental.result: 0.665% (inactive)
--
molecule: O=C(CSCC(=O)N1CCOCC1)Nc1ccccc1
experimental.result: 0.42% (inactive)

Qu. Give inhibition for the following molecule: CCCCn1c(CN2CCN(C(=O)c3ccco3)CC2)nc2c1c(=O)n(C)c(=O)n2C
Ans. 0.905% (inactive)

Qu. Given the molecule Cn1c(=O)oc2cc(S(=O)(=O)NCc3ccccn3)ccc21 , write its reported inhibition.
Ans. 3.3% (inactive)

Qu. Supply recorded inhibition for CCNC(=O)Cc1ccc(NS(=O)(=O)c2ccc(F)cc2)cc1 here.
Ans. 0.34% (inactive)

###

Assay: growth suppression of beta-catenin knockout HCT116, pilot screen, human colon tumor cells (AID 823);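 note: 0% = wells killed by 20 µM Hyamine and 100% = untreated DMSO cell wells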
Conditions: CellTiter-Glo, 60 h, at 10 µM, active compounds read low
Results filed as inconclusive are left out.
measurement.label: viability (%)
Unit % implied. Number only.

Qu. Look up and state reported viability for O=S(=O)(c1ccccc1)n1ccc2ccccc21
Ans. 87.4

Qu. Return the recorded viability value; entry: Cc1c(C(=O)N2CCCc3ccccc32)sc2nc(-c3ccccc3)cn12
Ans. 65.9

Qu. Return value of viability for input CCOC(=O)N1CCC(N2C(=O)c3ccc(C(=O)NCc4ccc(F)cc4)cc3C2=O)CC1 , no commentary.
Ans. 98.1

Qu. Name the recorded viability of the item Cc1csc(=NC(=O)c2ccccc2)n1Cc1ccco1 in your answer.
Ans. 87.9

Qu. Using known records, supply viability for O=C(NCC1CCCO1)c1ccc2nc(N3CCCCC3)sc2c1 (stereo unspecified)
Ans. 102

###

Test: Restrictive medium S. cerevisiae growth inhibition, OD615, pilot screen of yeast lifespan reduction project, restrictive growth control (AID 706);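 note: modified DeaD lifespan yeast strain shifted to restrictive glucose medium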
Details: OD615, 48 h, at 10 µM, active compounds read high
measurement.label: growth inhibition (%)
Expressed in %, but write only the number.

Below, each entry is followed by its recorded growth inhibition result.
compound: CS(=O)(=O)N(CC(=O)NCc1ccco1)c1cc(C(F)(F)F)ccc1Cl
quantity.unit: %
experimental.result: -4.23
//
compound: Cn1c(=O)oc2cc(S(=O)(=O)N3CCCC(C(=O)Nc4ccc5c(c4)OCCO5)C3)ccc21 (stereo not given)
quantity.unit: %
experimental.result: -4.89
//
compound: O=C(Cn1cc2c(n1)CCCC2)NC1CCCCCC1
quantity.unit: %
experimental.result: 2.47
//
compound: CC(=O)COC(=O)c1cccc(N2C(=O)C3C4C=CC(C4)C3C2=O)c1 (stereo not given)
quantity.unit: %
experimental.result: 8.06

For the next question, use this compound.
Qu. Tell me its growth inhibition given Cc1cc(C)c(NC(=O)CSc2nnc(-c3ccncc3)n2Cc2ccco2)c(Cl)c1 as the entry.
Ans. 12.8
